- TARGET SYSTEM: SlitOBP1 Ile52 (isoleucine to alanine) (Spodoptera litura, UniProt A1Z1R1, I71A)
- Sequence (A1Z1R1 20-164 I71A): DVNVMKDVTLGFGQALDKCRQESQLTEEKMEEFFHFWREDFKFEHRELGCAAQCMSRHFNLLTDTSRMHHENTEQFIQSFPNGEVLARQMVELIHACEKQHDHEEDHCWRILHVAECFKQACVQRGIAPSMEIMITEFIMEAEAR
- PROTOCOL TEXT: Fluorescence binding assay with 1-NPN, mutant SlitOBP1 Ile52
QUANTITY NAME: Kd (µM)
Answers are plain numbers, in µM.

Ask | Indicate the recorded Kd value for this molecule: c1ccc(Nc2cccc3ccccc23)cc1 [1-NPN, N-phenyl-1-naphthylamine, reference compound]
Reply | 5.43

---

- TARGET SYSTEM: SlitOBP1 Glu98 (glutamic to alanine) (Spodoptera litura, UniProt A1Z1R1, E117A)
- Sequence (A1Z1R1 20-164 E117A): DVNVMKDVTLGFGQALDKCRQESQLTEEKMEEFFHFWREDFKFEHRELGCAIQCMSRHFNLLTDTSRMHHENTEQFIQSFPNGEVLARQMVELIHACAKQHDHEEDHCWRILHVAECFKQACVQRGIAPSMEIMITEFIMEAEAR
- PROTOCOL TEXT: Fluorescence binding assay with 1-NPN, mutant SlitOBP1 Glu98
QUANTITY NAME: Kd (µM)
Numbers only, in µM.

Ask | With SlitOBP1 Glu98 (glutamic to alanine) (Spodoptera litura, UniProt A1Z1R1, E117A) as the test system, provide measured Kd for this molecule: c1ccc(Nc2cccc3ccccc23)cc1 [1-NPN, N-phenyl-1-naphthylamine, reference compound]
Reply | 3.67
